- target-under-test: T1, recombinant human sc-uPA (human, UniProt P00749 21-431)
- T1 construct: 411 amino acid single-chain zymogen expressed in HEK293; the 20-residue signal peptide is not present in the mature protein; also called human single-chain uPA; pro-uPA
- assay-summary: SPR, mAb immobilised
pKd: −log10 of the molar value.

# binder, pKd
measured = [
    ("rec0266-0000-0010-VH_D98H (antibody, mouse IgG1, V domains shown) VH: DVKLVESGGGLVKPGGSLKLSCVASGFTFSSYTMSWVRQTPEKRLEWVATISGGGSHIYYADSVKGRFTISRDNAKNTLYLQMSSLKSEDTAIYYCTRDGRHGSWFAYWGQGTLVTVSA VL: DIVMTQSPATLSVTPGDRVSLSCRTSQSIGDYLHWYQQKSHESPRLLIKYVSQSISGIPSRFSGSGSGSDFTLSINSVESEDVGVYYCQNSHSFPLTFGSGTKLELKR", 8.77),
    ("rec0266-0000-0010-VH_D98F (antibody, mouse IgG1, V domains shown) VH: DVKLVESGGGLVKPGGSLKLSCVASGFTFSSYTMSWVRQTPEKRLEWVATISGGGSHIYYADSVKGRFTISRDNAKNTLYLQMSSLKSEDTAIYYCTRDGRFGSWFAYWGQGTLVTVSA VL: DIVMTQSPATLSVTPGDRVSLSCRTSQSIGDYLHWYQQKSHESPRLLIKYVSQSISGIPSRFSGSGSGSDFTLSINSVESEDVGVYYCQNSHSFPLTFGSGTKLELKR", 8.82),
    ("rec0266-0000-0010-VH_D95P (antibody, mouse IgG1, V domains shown) VH: DVKLVESGGGLVKPGGSLKLSCVASGFTFSSYTMSWVRQTPEKRLEWVATISGGGSHIYYADSVKGRFTISRDNAKNTLYLQMSSLKSEDTAIYYCTRPGRDGSWFAYWGQGTLVTVSA VL: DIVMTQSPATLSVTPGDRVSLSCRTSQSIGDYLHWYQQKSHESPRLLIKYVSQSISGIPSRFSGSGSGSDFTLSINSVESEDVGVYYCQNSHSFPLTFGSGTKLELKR", 8.57),
]
